Sourced from patent US8815857B2

Molecular target: Recombinant human soluble guanylate cyclase (sGC), alpha 1 / beta 1 subunits, heme-free (Homo sapiens, UniProt Q02108+Q02153)
Construct: histidine tag (C); made in house; host or cells: Sf9 insect cells (baculovirus coinfection)
Sequence (Q02108 whole entry partner): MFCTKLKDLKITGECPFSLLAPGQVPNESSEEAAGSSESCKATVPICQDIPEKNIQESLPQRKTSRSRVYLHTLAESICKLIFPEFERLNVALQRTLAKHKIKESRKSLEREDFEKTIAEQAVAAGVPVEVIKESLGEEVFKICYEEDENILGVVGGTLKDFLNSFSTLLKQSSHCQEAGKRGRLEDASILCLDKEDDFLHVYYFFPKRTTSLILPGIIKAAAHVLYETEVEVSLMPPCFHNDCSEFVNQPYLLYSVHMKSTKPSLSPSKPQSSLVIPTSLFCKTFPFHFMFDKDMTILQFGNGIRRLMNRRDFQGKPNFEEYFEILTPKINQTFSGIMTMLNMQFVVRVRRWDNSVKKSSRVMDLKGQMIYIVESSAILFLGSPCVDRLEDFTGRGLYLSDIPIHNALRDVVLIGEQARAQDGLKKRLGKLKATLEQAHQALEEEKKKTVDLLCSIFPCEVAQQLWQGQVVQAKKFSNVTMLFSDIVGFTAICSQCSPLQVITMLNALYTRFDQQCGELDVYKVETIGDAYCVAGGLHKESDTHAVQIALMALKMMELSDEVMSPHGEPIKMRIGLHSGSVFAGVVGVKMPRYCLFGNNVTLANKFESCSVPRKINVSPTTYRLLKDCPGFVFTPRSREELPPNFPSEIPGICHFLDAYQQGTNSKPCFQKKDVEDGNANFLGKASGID
Sequence (Q02153 whole entry): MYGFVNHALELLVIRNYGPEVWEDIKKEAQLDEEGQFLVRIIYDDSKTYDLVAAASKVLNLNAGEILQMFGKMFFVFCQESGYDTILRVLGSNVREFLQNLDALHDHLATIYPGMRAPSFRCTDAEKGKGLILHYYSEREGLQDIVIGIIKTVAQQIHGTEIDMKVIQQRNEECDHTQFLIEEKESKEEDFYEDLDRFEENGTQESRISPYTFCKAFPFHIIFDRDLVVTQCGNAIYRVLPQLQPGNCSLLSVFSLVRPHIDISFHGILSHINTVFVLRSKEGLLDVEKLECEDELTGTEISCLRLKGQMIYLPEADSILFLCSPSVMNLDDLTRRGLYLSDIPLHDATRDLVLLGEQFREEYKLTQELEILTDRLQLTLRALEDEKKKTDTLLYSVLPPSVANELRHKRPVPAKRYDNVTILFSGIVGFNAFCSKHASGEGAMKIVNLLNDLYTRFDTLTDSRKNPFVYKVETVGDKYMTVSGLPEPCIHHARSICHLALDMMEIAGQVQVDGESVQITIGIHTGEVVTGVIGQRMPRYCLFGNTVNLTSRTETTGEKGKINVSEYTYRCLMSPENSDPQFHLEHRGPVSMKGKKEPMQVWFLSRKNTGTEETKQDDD
Test: Molecular assay: cGMP formation by heme-free recombinant sGC (CisBio cGMP detection kit)
Assay type: biochemical
Conditions: 300 pM heme-free sGC, 37° C., 60 min, cGMP readout; read-out: EC50 nM, Activity of Compounds in Molecular Assay
ENDPOINT_NAME: EC50 (nM)
Your answer is read as nM, so omit the unit and give the number.

Cc1ccc(OCc2ccc(CN3CCOCC3)cc2C)c(-c2csc(N3CCC(F)(C(=O)O)CC3)n2)c1 [Compound 60] | 1200
Cc1cc(CN2CCOCC2)ccc1COc1ccccc1-c1csc(N2CC3CCC(C2)C3C(=O)O)n1 (centres unmarked) [Compound 43] | 63
Cc1cc(CN2CCOCC2)ccc1COc1ccccc1-c1csc(N2CCC(C(=O)O)C(C)C2)n1 (centres unmarked) [Compound 2] | 320

Next compound, please.
Using the record for Cc1ccc(OCc2ccc(CN3CCOCC3)cc2C)c(-c2csc(N3CC(C(=O)O)C3)n2)c1 [Compound 215] , report its EC50.
1000
